Reported inhibition at 1 µM values follow for various molecules
- Assayed System: human 11β-HSD1 (Homo sapiens, UniProt P28845)
- Construct: expressed in transfected cells; host or cells: HEK-293 (human), stably transfected
- Sequence (P28845 whole entry): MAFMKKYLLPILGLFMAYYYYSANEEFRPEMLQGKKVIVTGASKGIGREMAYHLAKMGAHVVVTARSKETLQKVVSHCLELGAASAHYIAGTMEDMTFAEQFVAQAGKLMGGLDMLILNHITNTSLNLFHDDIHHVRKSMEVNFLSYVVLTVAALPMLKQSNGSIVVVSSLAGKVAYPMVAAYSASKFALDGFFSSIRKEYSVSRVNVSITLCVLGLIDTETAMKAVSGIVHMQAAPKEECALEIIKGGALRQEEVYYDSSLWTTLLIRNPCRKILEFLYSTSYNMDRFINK
- Test: 11β-HSD1 inhibition, human HEK-293 cell based assay (SPA)
- Run Parameters: HEK293; 1 μM, HEK-293 cells transfected with HSD11B1; read-out: Percentage of inhibition measured at 1 μM
- Procedure: 11β-HSD1 inhibition was measured in intact human HEK-293 cells to reveal the true inhibitory activity. […] The cell-based assays were conducted on the human HEK-293 cell line stably transfected with the HSD11B1 gene.[28] 11β-HSD1 activity was determined by measuring the amount of tritiated product formed using a scintillation proximity assay (SPA). […]
The reply should contain only the number, in %.

Known results for molecules:
>  <Smiles Record>
Cc1cccc(CN(C)C(=O)C23CC4CC(CC(C4)C2)C3)n1

>  <inhibition at 1 µM, %>
48

$$$$
>  <Smiles Record>
CN(Cc1cccnc1)C(=O)C12CC3CC(CC(C3)C1)C2

>  <inhibition at 1 µM, %>
57

$$$$
>  <Smiles Record>
O=C(CC12CC3CC(CC(C3)C1)C2)NCc1cccs1

>  <inhibition at 1 µM, %>
66

$$$$
>  <Smiles Record>
Cc1csc(CNC(=O)C23CC4CC(CC(C4)C2)C3)c1

>  <inhibition at 1 µM, %>
8

$$$$
>  <Smiles Record>
CN(Cc1cccnc1)C(=O)CC12CC3CC(CC(C3)C1)C2

>  <inhibition at 1 µM, %>
67

$$$$

State, in one line, measured inhibition at 1 µM of CN(Cc1nccn1C)C(=O)C12CC3CC(CC(C3)C1)C2 24

State, in one line, measured inhibition at 1 µM of O=C(NCCc1cccnc1)C12CC3CC(CC(C3)C1)C2 1

###

Reported IC50 values follow for various compounds
- Assayed System: human cytochrome P450 3A4-BFC (Homo sapiens, UniProt P08684)
- Sequence (P08684 whole entry): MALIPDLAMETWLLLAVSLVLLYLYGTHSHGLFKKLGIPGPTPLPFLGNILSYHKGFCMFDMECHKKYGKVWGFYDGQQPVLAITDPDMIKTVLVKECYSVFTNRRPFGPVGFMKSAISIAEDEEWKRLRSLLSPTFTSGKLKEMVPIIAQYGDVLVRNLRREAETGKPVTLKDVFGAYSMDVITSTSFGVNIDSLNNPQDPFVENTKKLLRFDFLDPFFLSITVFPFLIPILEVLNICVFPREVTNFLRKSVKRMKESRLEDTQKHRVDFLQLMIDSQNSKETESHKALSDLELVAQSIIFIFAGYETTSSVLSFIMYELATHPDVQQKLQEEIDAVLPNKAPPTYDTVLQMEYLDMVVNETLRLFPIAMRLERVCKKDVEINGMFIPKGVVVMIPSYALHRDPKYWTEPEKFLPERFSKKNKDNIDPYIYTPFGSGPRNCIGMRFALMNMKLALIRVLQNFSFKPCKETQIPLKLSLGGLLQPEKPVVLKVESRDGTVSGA
- Test: Inhibition of human cytochrome P450 3A4-BFC (7-benzyloxy-4-(trifluoromethyl)coumarin)
- Format: in vitro ADME
- Run Parameters: mean value of two measurements
- Source text: To identify potential problems with these compounds interfering with the metabolism of other drugs, compounds 3, 4, 15 and 41 were studied for their inhibition of the key human cytochrome P450 enzymes: 1A2, 2C9, 2C19, 2D6, 3A4-BFC (7-benzyloxy-4-(trifluoromethyl)coumarin) and 3A4-BQ (7-benzyloxyquinoline) (Table 6).
The reply should contain only the number, in µM.

Known results for compounds:
>  <Compound>
CN(Cc1cccs1)C(=O)CC12CC3CC(CC(C3)C1)C2 [Compound 4]

>  <Reported Result>
0.15

$$$$
>  <Compound>
Cc1ccc(C2(C(=O)N(C)Cc3cccs3)CC2)cc1 [Compound 41]

>  <Reported Result>
7.3

$$$$
>  <Compound>
CN(Cc1cccn1C)C(=O)C12CC3CC(CC(C3)C1)C2 [Compound 15]

>  <Reported Result>
19

$$$$

Turning to the following compound.
State, in one line, measured IC50 of CN(Cc1cccs1)C(=O)C12CC3CC(CC(C3)C1)C2 [Compound 3] 10

###

- Assayed System: human 11β-HSD1 (Homo sapiens, UniProt P28845)
- Construct: expressed in transfected cells; host or cells: HEK-293 (human), stably transfected
- Test: 11β-HSD1 inhibition, human HEK-293 cell based assay (SPA)
- Run Parameters: HEK-293 cells
Outcome Measure: IC50

State, in one line, measured IC50 of CN(Cc1cccs1)C(=O)C1(c2ccc(Cl)cc2)CC1 ~1600 nM

###

- Assayed System: human cytochrome P450 2C19 (Homo sapiens)
- Sequence (P33261 whole entry): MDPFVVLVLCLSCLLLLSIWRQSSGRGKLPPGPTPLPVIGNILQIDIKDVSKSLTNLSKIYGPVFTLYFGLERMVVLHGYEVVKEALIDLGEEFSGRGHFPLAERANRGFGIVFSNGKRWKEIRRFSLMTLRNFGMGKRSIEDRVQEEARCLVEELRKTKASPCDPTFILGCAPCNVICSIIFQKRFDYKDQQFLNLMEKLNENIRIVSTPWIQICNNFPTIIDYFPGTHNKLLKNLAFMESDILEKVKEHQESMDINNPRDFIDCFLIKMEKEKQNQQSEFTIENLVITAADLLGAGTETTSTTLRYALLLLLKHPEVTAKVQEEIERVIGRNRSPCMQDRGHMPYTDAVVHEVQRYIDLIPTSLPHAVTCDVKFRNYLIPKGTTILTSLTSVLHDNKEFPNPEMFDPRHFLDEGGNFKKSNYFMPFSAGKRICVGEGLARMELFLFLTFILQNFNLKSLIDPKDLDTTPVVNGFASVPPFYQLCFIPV
- Test: Inhibition of human cytochrome P450 2C19
- Assay type: in vitro ADME
- Run Parameters: mean value of two measurements
Reported IC50 values follow for various compounds

>  <Smiles Record>
Cc1ccc(C2(C(=O)N(C)Cc3cccs3)CC2)cc1

>  <Reported Result>
> 100 µM

$$$$

Turning to the following compound.
State, in one line, measured IC50 of CN(Cc1cccn1C)C(=O)C12CC3CC(CC(C3)C1)C2 > 100 µM

###

- Assayed System: human cytochrome P450 2D6 (Homo sapiens, UniProt P10635)
- Sequence (P10635 whole entry): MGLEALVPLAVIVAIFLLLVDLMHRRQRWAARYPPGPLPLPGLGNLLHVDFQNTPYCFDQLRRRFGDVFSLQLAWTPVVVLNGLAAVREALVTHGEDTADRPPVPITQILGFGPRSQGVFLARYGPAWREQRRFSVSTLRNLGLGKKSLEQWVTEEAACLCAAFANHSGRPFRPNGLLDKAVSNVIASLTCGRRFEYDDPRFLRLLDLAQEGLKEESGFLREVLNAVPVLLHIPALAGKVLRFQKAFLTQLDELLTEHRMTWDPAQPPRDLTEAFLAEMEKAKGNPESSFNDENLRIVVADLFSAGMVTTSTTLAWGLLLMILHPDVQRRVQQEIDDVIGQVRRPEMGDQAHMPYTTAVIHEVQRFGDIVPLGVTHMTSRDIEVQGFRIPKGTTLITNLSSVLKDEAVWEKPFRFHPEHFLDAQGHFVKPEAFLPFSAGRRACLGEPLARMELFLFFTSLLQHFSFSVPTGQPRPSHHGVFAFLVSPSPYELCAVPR
- Test: Inhibition of human cytochrome P450 2D6
- Assay type: in vitro ADME
- Run Parameters: mean value of two measurements
Outcome Measure: IC50 (µM)
The reply should contain only the number, in µM.

Fill: IC50 (human cytochrome P450 2D6 (Homo sapiens, UniProt P10635)) for this compound Cc1ccc(C2(C(=O)N(C)Cc3cccs3)CC2)cc1 72

###

Reported pIC50 values follow for various compounds
- Assayed System: human 11β-HSD1 (Homo sapiens, UniProt P28845)
- Construct: expressed in transfected cells; host or cells: HEK-293 (human), stably transfected
- Test: 11β-HSD1 inhibition, human HEK-293 cell based assay (SPA)
- Run Parameters: HEK-293 cells stably transfected with HSD11B1; mean of 3 measurements
The meaning of pIC50 here: minus log10 of the concentration in molar units.

Known results for compounds:
>  <Compound>
CN(Cc1cccs1)C(=O)C1(c2ccc(Cl)cc2)CCC1

>  <Outcome Measure>
pIC50

>  <Reported Result>
6.41

$$$$
>  <Compound>
CN(Cc1cccs1)C(=O)CC12CC3CC(CC(C3)C1)C2

>  <Outcome Measure>
pIC50

>  <Reported Result>
6.51

$$$$

State, in one line, measured pIC50 of O=C(NCCc1ccccn1)C12CC3CC(CC(C3)C1)C2 6.42

State, in one line, measured pIC50 of CN(Cc1ccsc1)C(=O)C12CC3CC(CC(C3)C1)C2 6.90

State, in one line, measured pIC50 of C1CCc2nnc(C34CC5CC(CC(C5)C3)C4)n2CC1 [Merck compound 544, reference compound] 7.30

###

- Assayed System: human 11β-HSD1 (Homo sapiens)
- Construct: expressed in transfected cells; host or cells: HEK-293 (human), stably transfected
- Test: 11β-HSD1 inhibition, human HEK-293 cell based assay (SPA)
- Run Parameters: at 1 μM where stated

>  <Smiles Record>
CN(Cc1ccc(Cl)s1)C(=O)C12CC3CC(CC(C3)C1)C2

>  <Assayed System>
human 11β-HSD1 (Homo sapiens)

>  <11β-HSD1 inhibitory activity (in words)>
weak inhibition

$$$$
>  <Smiles Record>
Cc1ccc(CN(C)C(=O)C23CC4CC(CC(C4)C2)C3)s1

>  <Assayed System>
human 11β-HSD1 (Homo sapiens)

>  <11β-HSD1 inhibitory activity (in words)>
weak inhibition

$$$$
>  <Smiles Record>
Cc1csc(CN(C)C(=O)C23CC4CC(CC(C4)C2)C3)c1

>  <Assayed System>
human 11β-HSD1 (Homo sapiens)

>  <11β-HSD1 inhibitory activity (in words)>
weak inhibition

$$$$

###

- System: CYP 2CA (so in the source), CYP3A4
- Test: Inhibition of the key human cytochrome P450 enzymes (panel, summary statements)
- Assay type: in vitro ADME
- Run Parameters: human; 2CA, 3A4-BFC and 3A4-BQ
Outcome Measure: IC50

State, in one line, measured IC50 of Cc1ccc(C2(C(=O)N(C)Cc3cccs3)CC2)cc1 1.6 to 7.3 µM

###

- Test: Stability in incubation with human liver microsomes
- Format: in vitro ADME
- Run Parameters: 37 °C, 40 min, NADPH
Reported half-life values follow for various compounds

State, in one line, measured half-life of CN(Cc1cccs1)C(=O)C12CC3CC(CC(C3)C1)C2 60 to 70 min

State, in one line, measured half-life of CN(Cc1cccn1C)C(=O)C12CC3CC(CC(C3)C1)C2 60 to 70 min

###

Reported pIC50 values follow for various compounds
- Assayed System: human cytochrome P450 1A2 (Homo sapiens, UniProt P05177)
- Sequence (P05177 whole entry): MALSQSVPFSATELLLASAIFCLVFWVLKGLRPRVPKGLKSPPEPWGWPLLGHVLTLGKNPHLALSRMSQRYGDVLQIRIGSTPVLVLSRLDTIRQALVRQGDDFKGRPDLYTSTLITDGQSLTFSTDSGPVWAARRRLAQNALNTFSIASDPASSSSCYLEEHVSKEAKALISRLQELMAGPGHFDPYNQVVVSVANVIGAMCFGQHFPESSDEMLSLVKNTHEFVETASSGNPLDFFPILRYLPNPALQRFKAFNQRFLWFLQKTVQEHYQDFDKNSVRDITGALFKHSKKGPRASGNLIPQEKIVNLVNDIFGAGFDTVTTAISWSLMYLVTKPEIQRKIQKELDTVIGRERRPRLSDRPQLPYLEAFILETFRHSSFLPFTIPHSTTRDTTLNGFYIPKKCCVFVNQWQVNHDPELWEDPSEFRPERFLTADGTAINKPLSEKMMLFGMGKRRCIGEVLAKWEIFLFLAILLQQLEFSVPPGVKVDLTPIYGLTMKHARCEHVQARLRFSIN
- Test: Inhibition of human cytochrome P450 1A2
- Type: in vitro ADME
- Run Parameters: mean value of two measurements
pIC50: −log10 of the molar value.

>  <Compound>
Cc1ccc(C2(C(=O)N(C)Cc3cccs3)CC2)cc1 [Compound 41]

>  <Assayed System>
human cytochrome P450 1A2 (Homo sapiens, UniProt P05177)

>  <pIC50>
< 4.00

$$$$

Turning to the following compound.
State, in one line, measured pIC50 of CN(Cc1cccn1C)C(=O)C12CC3CC(CC(C3)C1)C2 [Compound 15] < 4.00

###

Reported melting point values follow for various compounds

Known results for compounds:
>  <Compound>
CN(Cc1nccn1C)C(=O)C12CC3CC(CC(C3)C1)C2 [Compound 17]

>  <Outcome Measure>
melting point

>  <Reported Result>
175 to 176 °C

$$$$
>  <Compound>
CN(Cc1ccnn1C)C(=O)C12CC3CC(CC(C3)C1)C2 [Compound 18]

>  <Outcome Measure>
melting point

>  <Reported Result>
102 to 103.5 °C

$$$$
>  <Compound>
CN(Cc1cccn1C)C(=O)CC12CC3CC(CC(C3)C1)C2 [Compound 35]

>  <Outcome Measure>
melting point

>  <Reported Result>
75 to 76.5 °C

$$$$

State, in one line, measured melting point of CN(Cc1sccc1N)C(=O)C12CC3CC(CC(C3)C1)C2 [Compound 7] 117 to 119 °C

State, in one line, measured melting point of Cc1csc(CNC(=O)C23CC4CC(CC(C4)C2)C3)c1 [Compound 9] 127 to 128.5 °C

State, in one line, measured melting point of CN(CCc1ccccn1)C(=O)C12CC3CC(CC(C3)C1)C2 [Compound 30] 64 to 65 °C

State, in one line, measured melting point of Cc1cccc(CN(C)C(=O)C23CC4CC(CC(C4)C2)C3)n1 [Compound 27] 76 to 77.5 °C

State, in one line, measured melting point of Cn1cccc1CNC(=O)CC12CC3CC(CC(C3)C1)C2 [Compound 36] 92 to 95 °C

State, in one line, measured melting point of Cc1ccc(CN(C)C(=O)C23CC4CC(CC(C4)C2)C3)s1 [Compound 10] 83 to 85.5 °C

State, in one line, measured melting point of O=C(NCc1ccccn1)C12CC3CC(CC(C3)C1)C2 [Compound 26] 91 to 93.5 °C

State, in one line, measured melting point of O=C(NCc1ccco1)C12CC3CC(CC(C3)C1)C2 [Compound 14] 69 to 72 °C

State, in one line, measured melting point of CC(=O)Nc1cccc(CN(C)C(=O)C23CC4CC(CC(C4)C2)C3)c1 [Compound 21] 109 to 111 °C
